Every entry's value here was drawn from patent US8293749B2.

Assay: physchem
Details: 25 °C, pH 4, aqueous buffer, thermodynamic from solid, aqueous solubility of meclizine at pH 4.0
RECORDED_ENDPOINT: solubility at 24 h

*Q* I'd like to know its solubility at 24 h. The compound in question is Cc1cccc(CN2CCN(C(c3ccccc3)c3ccc(Cl)cc3)CC2)c1 (stereo not shown)
*A* ~10 µg/mL

====

Assay: Aqueous solubility of meclizine versus pH, 0.1 M citric acid buffer and ddH2O, HPLC
Type: physicochemical
Conditions: aqueous buffer, thermodynamic from solid; 0.1 M citric acid buffer, pH 1.0, shaken 24 hours; read-out: aqueous solubility of meclizine
RECORDED_ENDPOINT: solubility at 24 h

*Q* Entry Cc1cccc(CN2CCN(C(c3ccccc3)c3ccc(Cl)cc3)CC2)c1 (stereo not shown) [meclizine] : reported solubility at 24 h = ?
*A* ~1500 µg/mL
